DLD1 4% Abs IC50 overview
Target: T1, beta-catenin in DLD1 TCF/LEF luciferase reporter cells (UniProt P35222 1-781)
T1 sequence (looked up): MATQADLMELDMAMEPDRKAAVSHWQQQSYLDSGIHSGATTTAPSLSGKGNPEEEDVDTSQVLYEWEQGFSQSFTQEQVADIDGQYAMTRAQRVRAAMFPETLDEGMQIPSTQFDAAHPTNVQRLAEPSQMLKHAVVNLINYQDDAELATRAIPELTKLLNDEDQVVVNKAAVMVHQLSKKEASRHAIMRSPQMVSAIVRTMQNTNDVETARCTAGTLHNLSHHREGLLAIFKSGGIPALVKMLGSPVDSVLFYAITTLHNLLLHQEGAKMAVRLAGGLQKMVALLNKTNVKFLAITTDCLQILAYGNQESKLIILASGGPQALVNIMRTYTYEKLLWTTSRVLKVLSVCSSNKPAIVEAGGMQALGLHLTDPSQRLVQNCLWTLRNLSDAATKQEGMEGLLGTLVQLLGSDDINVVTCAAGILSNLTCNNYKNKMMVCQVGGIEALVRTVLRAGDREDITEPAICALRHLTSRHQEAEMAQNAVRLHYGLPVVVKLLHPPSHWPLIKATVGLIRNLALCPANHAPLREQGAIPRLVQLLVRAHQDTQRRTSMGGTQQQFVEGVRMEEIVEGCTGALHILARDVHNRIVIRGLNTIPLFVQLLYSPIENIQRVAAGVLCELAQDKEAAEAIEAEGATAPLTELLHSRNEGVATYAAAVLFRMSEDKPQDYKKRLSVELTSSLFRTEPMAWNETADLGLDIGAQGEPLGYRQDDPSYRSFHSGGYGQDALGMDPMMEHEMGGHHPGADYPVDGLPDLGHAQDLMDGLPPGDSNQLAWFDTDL
Assay: cell-based or functional assay
Starred links: 1 amine or outer side, 2 acyl side, 3 side chain; linkers in the order of their positions; H or OH if unused. Positions of bridges follow the written chain, without caps; N, C: chain ends. Non-standard residues stand in square brackets, D forms with d. Primed or numbered codes have the meaning given here. PyrS2″ = (S)-3-amino-1-((pent-4-en-1-yloxy)carbonyl)pyrrolidine-3-carboxylic acid (stapling residue), C=CCCCOC(=O)N1CC[C@@](N[*:1])(C(=O)[*:2])C1; B5(5) = 2,2-bis(4-pentenyl)glycine, 2-amino-2-(pent-4-en-1-yl)hept-6-enoic acid (stitching residue), C=CCCCC(CCCC=C)(N[*:1])C(=O)[*:2]; PyrS2 = (S)-3-amino-1-((pent-4-en-1-yloxy)carbonyl)pyrrolidine-3-carboxylic acid, C=CCCCOC(=O)N1CC[C@@](N[*:1])(C(=O)[*:2])C1; Phe(3-COOH) = N[C@@H](Cc1cccc(C(=O)O)c1)C(=O)O; 2F3MeF = Cc1cccc(C[C@H](N[*:1])C(=O)[*:2])c1F; Phe(2-CF3) = N[C@@H](Cc1ccccc1C(F)(F)F)C(=O)O; Bta = N[C@@H](Cc1csc2ccccc12)C(=O)O; αAllylPro = C=CC[C@@]1(C(=O)O)CCCN1; tBuAla = CC(C)(C)C[C@H](N)C(=O)O
Give the number; nM is assumed, so skip it.

INSERT INTO measurements (binder, measured_metric, observed_measurement) VALUES
  ('Ac-[αAllylPro]D[tBuAla][B5(5)]D[Phe(3-COOH)]AAFL[PyrS2][Phe(2-CF3)][Bta]QFA-NH2 (staple 1-4, 4-11) [I-2400]', 'DLD1 4% Abs IC50', 800),
  ('Ac-[αAllylPro]D[tBuAla][B5(5)]D[Phe(3-COOH)]AAFL[PyrS2″][2F3MeF][Bta]QL[dQ]-NH2 (staple 1-4, 4-11) [I-2398]', 'DLD1 4% Abs IC50', 1300),
  ('Ac-[αAllylPro]D[tBuAla][B5(5)]D[Phe(3-COOH)]AAFL[PyrS2][Phe(2-CF3)][Bta]QAA-NH2 (staple 1-4, 4-11) [I-2399]', 'DLD1 4% Abs IC50', 2200),
  ('Ac-[αAllylPro]D[tBuAla][B5(5)]D[Phe(3-COOH)]AAFL[PyrS2][Phe(2-CF3)][Bta]QVA-NH2 (staple 1-4, 4-11) [I-2401]', 'DLD1 4% Abs IC50', 800);

Task: Return DLD1 4% Abs IC50 (reported value) for this binder: Ac-[αAllylPro]D[tBuAla][B5(5)]D[Phe(3-COOH)]AAFL[PyrS2][Phe(2-CF3)][Bta]QL[dL]-NH2 (staple 1-4, 4-11) [I-2396]
Output: 1500
